# Lookup of reported drug sensitivity score keyed by entry
Tested on: MDA-MB-453
test: drug sensitivity score (DSS), in combination with BLU9931 (DSS (weighted AUC score)); higher = more sensitive (stronger viability decrease); extreme values may be limits of the assay
condition.context: BLU9931 100 nM; 72 h
Kindly provide the number alone.

Use these answered entries as a reference point.
compound	assay.result
CN(C)Cc1c(C(=O)NCCOc2ccc(C(=O)NO)cc2)oc2ccccc12 [Abexinostat]	22.3
Cn1cc(C[C@@H](N)C(=O)O)c2ccccc21 [1-methyl-D-tryptophan]	0

-- ask Value lookup for drug sensitivity score; key = O=C(O)CC1CC(c2ccccc2)=NO1 (stereo unspecified) [VGX-1027]
-- reply 0

-- ask How about this compound: CCNC(=O)CCC/C=C\C[C@@H]1[C@@H](/C=C/[C@@H](O)CCc2ccccc2)[C@H](O)C[C@@H]1O [Bimatoprost]
-- reply 0

-- ask How about this compound: Cn1ncnc1[C@H]1c2n[nH]c(=O)c3cc(F)cc(c23)N[C@@H]1c1ccc(F)cc1 [Talazoparib]
-- reply 3.1

-- ask How about this compound: CCCOc1ccn2c(C(C)=O)cc(-c3ccccc3S(C)(=O)=O)c2c1 [GSK2801]
-- reply 0

-- ask How about this compound: Cc1cccc(-c2[nH]c(CNc3ccccc3F)nc2-c2ccc3ncnn3c2)n1 [TEW-7197]
-- reply 1.8

* * *

# Lookup of reported drug sensitivity score keyed by entry
Test system: MDA-MB-453
test: drug sensitivity score (DSS), in combination with BLU9931 (DSS (weighted AUC score)); higher = more sensitive (stronger viability decrease); extreme values may be limits of the assay
condition.context: BLU9931 100 nM; 72 h

Use these answered entries as a reference point.
>>> print(df.to_string())
                                   molecule  assay_result
0  O=C(O)c1ccc(-c2c[nH]c3ncc(-c4ccccc4)cc23)cc1C1CCCC1           0.5
1  CC(C)[C@H]1C(=O)N[C@@H](CCCNC(=N)N)C(=O)NCC(=O)N[C@@H](CC(=O)O)C(=O)N[C@H](Cc2ccccc2)C(=O)N1C [Cilengitide]             0
2  CC[C@@H]1C(=O)N(C)c2cnc(Nc3ccc(C(=O)NC4CCN(C)CC4)cc3OC)nc2N1C1CCCC1           9.2
3  CC(=O)c1cnc2ccc(-c3cc(Cl)c(O)c(Cl)c3)nc2c1N[C@H]1CC[C@H](CN(C)C)CC1          15.9
4              CC(C)Cn1cnc2c(N)nc3ccccc3c21             0

-- ask Param readout= drug sensitivity score; system= MDA-MB-453; entry= `C[C@]12CC[C@H](O)CC1=CC[C@@H]1[C@@H]2CC[C@]2(C)C(c3cccnc3)=CC[C@@H]12` ; returns value.
-- reply 0

-- ask How about this molecule: `CC(C)(C#N)c1cc(Cn2cncn2)cc(C(C)(C)C#N)c1`
-- reply 0

-- ask How about this molecule: `Cc1ccc(NC(=O)c2ccc(CN3CC[C@H](N(C)C)C3)c(C(F)(F)F)c2)cc1Nc1nccc(-c2cncnc2)n1`
-- reply 0

* * *

# Lookup of reported drug sensitivity score keyed by entry
Test system: MDA-MB-453
test: drug sensitivity score (DSS), single agent (DSS (weighted AUC score)); higher = more sensitive (stronger viability decrease); extreme values may be limits of the assay
condition.context: BLU9931 0 nM; 72 h
Kindly provide the number alone.

In [3]: df
Out[3]:
                                  molecule  assay_result
0  Cn1nnc2c(C(N)=O)ncn2c1=O [Temozolomide]             0

-- ask Value lookup for drug sensitivity score; key = `Cc1nc(NC(=O)N2CCC[C@H]2C(N)=O)sc1-c1ccnc(C(C)(C)C(F)(F)F)c1`
-- reply 7.2

-- ask How about this molecule: `CN1CCN(c2cc(C(=O)Nc3ccc4c(c3)-c3c(c(C(N)=O)nn3-c3ccc(F)cc3)CC4)c(Cl)cn2)CC1`
-- reply 4.9

-- ask How about this molecule: `Cc1ncc(Cl)cc1NCc1ccc(C(=O)N[C@@H](CC2CCCC2)C(=O)NC2CC2)s1`
-- reply 0

-- ask How about this molecule: `NC(=O)c1cccc2cn(-c3ccc([C@@H]4CCCNC4)cc3)nc12`
-- reply 2.3

-- ask How about this molecule: `CCCCCCCCCCCCCCCCOP(=O)([O-])OCC[N+](C)(C)C`
-- reply 2.7

-- ask How about this molecule: `CN(C)c1cc2c(cc1Sc1nc3c(N)nccc3n1CCNCC(C)(C)C)OCO2`
-- reply 17.6

-- ask How about this molecule: `CNC(=O)c1cc(Oc2ccc(NC(=O)Nc3ccc(Cl)c(C(F)(F)F)c3)c(F)c2)ccn1`
-- reply 3

-- ask How about this molecule: `N#Cc1ccc(COC[C@H]2O[C@@H](n3c(NCc4ccc(Cl)c(Cl)c4)nc4c(N)ncnc43)[C@H](O)[C@@H]2O)cc1`
-- reply 4.9

* * *

# Lookup of reported drug sensitivity score keyed by entry
System: MDA-MB-453
test: drug sensitivity score (DSS), single agent (DSS (weighted AUC score)); higher = more sensitive (stronger viability decrease); extreme values may be limits of the assay
condition.context: BLU9931 0 nM; 72 h

Use these answered entries as a reference point.
compound	drug sensitivity score
COC(=O)c1ccc2c(c1)NC(=O)/C2=C(\Nc1ccc(N(C)C(=O)CN2CCN(C)CC2)cc1)c1ccccc1 [Nintedanib]	4.7
CC1(C)OCCn2c1nc1c(N3CCOCC3)nc(-c3cnc(N)nc3)nc12 [GDC-0084]	16.4

-- ask Value lookup for drug sensitivity score; key = C[C@@H]1CCN(C(=O)CC#N)C[C@@H]1N(C)c1ncnc2[nH]ccc12 [Tofacitinib]
-- reply 0

-- ask How about this compound: CCc1cnn2c(NCc3ccc[n+]([O-])c3)cc(N3CCCC[C@H]3CCO)nc12 [Dinaciclib]
-- reply 22.1

-- ask How about this compound: O=C(Nc1ccncc1)C(=O)c1cn(Cc2ccc(Cl)cc2)c2ccccc12 [Indibulin]
-- reply 9.1

-- ask How about this compound: Cc1ccc(-n2nc(C(C)(C)C)cc2NC(=O)Nc2ccc(OCCN3CCOCC3)c3ccccc23)cc1 [Doramapimod]
-- reply 2.3

-- ask How about this compound: CC1(C)CNc2cc(NC(=O)c3cccnc3NCc3ccncc3)ccc21 [Motesanib]
-- reply 1

-- ask How about this compound: Cc1ccc(C(=O)Nc2ccc(CN3CCN(C)CC3)c(C(F)(F)F)c2)cc1C#Cc1cnc2cccnn12 [Ponatinib]
-- reply 5.9

-- ask How about this compound: COc1cc([C@@H]2c3cc4c(cc3[C@@H](O[C@@H]3O[C@@H]5CO[C@@H](c6cccs6)O[C@H]5[C@H](O)[C@H]3O)[C@H]3COC(=O)[C@H]23)OCO4)cc(OC)c1O [Teniposide]
-- reply 0

-- ask How about this compound: CC(=O)c1cnc2ccc(-c3cc(Cl)c(O)c(Cl)c3)nc2c1N[C@H]1CC[C@H](CN(C)C)CC1 [OTS167]
-- reply 17.4

-- ask How about this compound: CC(=O)O[C@@]12CO[C@@H]1C[C@H](O)[C@@]1(C)C(=O)[C@H](O)C3=C(C)[C@@H](OC(=O)[C@H](O)[C@@H](NC(=O)OC(C)(C)C)c4ccccc4)C[C@@](O)([C@@H](OC(=O)c4ccccc4)[C@H]21)C3(C)C [Docetaxel]
-- reply 18.3

-- ask How about this compound: Cc1ccc(C(=O)Nc2ccc(Oc3cc4cnn(C)c4cc3-c3cn[nH]c3)c(F)c2)c(=O)n1-c1ccc(F)cc1 [Merestinib]
-- reply 0

-- ask How about this compound: CCN(c1cc(-c2ccc(CN3CCOCC3)cc2)cc(C(=O)NCc2c(C)cc(C)[nH]c2=O)c1C)C1CCOCC1 [Tazemetostat]
-- reply 2.1

-- ask How about this compound: COc1ncc(-c2ccc3nccc(-c4ccnnc4)c3c2)cc1NS(=O)(=O)c1ccc(F)cc1F [Omipalisib]
-- reply 23

* * *

# Lookup of reported drug sensitivity score keyed by entry
System: MDA-MB-453
test: drug sensitivity score (DSS), in combination with BLU9931 (DSS (weighted AUC score)); higher = more sensitive (stronger viability decrease); extreme values may be limits of the assay
condition.context: BLU9931 100 nM; 72 h
Kindly provide the number alone.

molecule	drug sensitivity score
O=c1[nH]c(C2CCCN2)nc2c1oc1ccc(Cl)cc12 (stereo unspecified)	0.5
Cc1c2oc3c(C)ccc(C(=O)N[C@@H]4C(=O)N[C@H](C(C)C)C(=O)N5CCC[C@H]5C(=O)N(C)CC(=O)N(C)[C@@H](C(C)C)C(=O)O[C@@H]4C)c3nc-2c(C(=O)N[C@@H]2C(=O)N[C@H](C(C)C)C(=O)N3CCC[C@H]3C(=O)N(C)CC(=O)N(C)[C@@H](C(C)C)C(=O)O[C@@H]2C)c(N)c1=O [Dactinomycin]	22
Cc1cc(F)c(C(=O)Nc2cccc(-c3nncn3C(C)C)n2)cc1-n1cnc(C2CC2)c1 [Selonsertib]	0
O=C(NCc1ccncc1)C12CC3CC(C1)CC(c1ccc(Cl)cc1)(C3)C2	0
CC(C)c1c(C(=O)Nc2ccccc2)c(-c2ccccc2)c(-c2ccc(F)cc2)n1CC[C@@H](O)C[C@@H](O)CC(=O)O [Atorvastatin]	0

Next up:
-- ask Value lookup for drug sensitivity score; key = CCCCCOC(=O)Nc1nc(=O)n([C@@H]2O[C@H](C)[C@@H](O)[C@H]2O)cc1F [Capecitabine]
-- reply 0.2
